Tested on: Pseudomonas aeruginosa
METHOD_SUMMARY: Antibacterial activity against Pseudomonas aeruginosa assessed as diameter of inhibition zone at 1 mg/ml incubated for 24 hrs by agar well diffusion assay
Type: functional
EXPERIMENTAL_SETUP: read-out: DIZ
READOUT: zone of inhibition at 1000 µg/mL (mm)
Answers are plain numbers, in mm.

Some solved entries appear below for comparison.
INSERT INTO measurements (smiles_input, unit_label, numeric_readout) VALUES
  ('O=C(N/N=C/c1cc([N+](=O)[O-])ccc1OCc1cn(-c2ccccc2F)nn1)c1ccncc1', 'mm', 13),
  ('O=C(N/N=C/c1cc([N+](=O)[O-])ccc1OCc1cn(-c2ccccc2)nn1)c1ccncc1', 'mm', 13);

I need zone of inhibition at 1000 µg/mL for every entry listed below, if you could help.
1. COc1ccccc1-n1cc(COc2ccc([N+](=O)[O-])cc2/C=N/NC(=O)c2ccncc2)nn1
2. O=C(N/N=C/c1cc([N+](=O)[O-])ccc1OCc1cn(-c2cccc(Cl)c2)nn1)c1ccncc1

Output line:
1. 8
2. 8

----------
Test system: Salmonella enterica subsp. enterica serovar Abony
METHOD_SUMMARY: Antibacterial activity against Salmonella enterica subsp. enterica serovar Abony assessed as diameter of inhibition zone at 1 mg/ml incubated for 24 hrs by agar well diffusion assay
Type: functional
Activity calls are given as the source filed them. The rule behind the calls is not given here.
READOUT: diameter of the inhibition zone (DIZ)

INSERT INTO results (smiles_input, result) VALUES
  ('O=C(N/N=C/c1cc([N+](=O)[O-])ccc1OCc1cn(-c2ccccc2)nn1)c1ccncc1', 'inactive'),
  ('Cc1cc(C)c(-n2cc(COc3ccc([N+](=O)[O-])cc3/C=N/NC(=O)c3ccncc3)nn2)c(C)c1', 'inactive'),
  ('O=C(N/N=C/c1cc([N+](=O)[O-])ccc1OCc1cn(-c2cccc([N+](=O)[O-])c2)nn1)c1ccncc1', 'inactive'),
  ('O=C(N/N=C/c1cc([N+](=O)[O-])ccc1OCc1cn(-c2ccc(Br)cc2)nn1)c1ccncc1', 'inactive');

----------
Tested on: Klebsiella aerogenes
METHOD_SUMMARY: Antibacterial activity against Enterobacter aerogenes ATCC 13048 by CLSI method
Assay type: functional
READOUT: log10 of MIC (log10 of the value in µg/mL)
Hey, these are logged values: log10 of MIC, µg/mL being the unit before logging.

INSERT INTO results (smiles_input, numeric_readout) VALUES
  ('COc1ccc(-n2cc(COc3ccc([N+](=O)[O-])cc3/C=N/NC(=O)c3ccncc3)nn2)cc1', 2.18);

I need log10 of MIC for every entry listed below, if you could help.
1. Cc1ccccc1-n1cc(COc2ccc([N+](=O)[O-])cc2/C=N/NC(=O)c2ccncc2)nn1
2. CN(C)[C@@H]1C(O)=C(C(N)=O)C(=O)[C@@]2(O)C(O)=C3C(=O)c4c(O)cccc4[C@@](C)(O)[C@H]3C[C@@H]12
3. COc1ccccc1-n1cc(COc2ccc([N+](=O)[O-])cc2/C=N/NC(=O)c2ccncc2)nn1
4. O=C(N/N=C/c1cc([N+](=O)[O-])ccc1OCc1cn(-c2cccc(Cl)c2)nn1)c1ccncc1
5. O=C(N/N=C/c1cc([N+](=O)[O-])ccc1OCc1cn(-c2ccccc2Cl)nn1)c1ccncc1

Output line:
1: 2.28; 2: 1.18; 3: 2.57; 4: 2.41; 5: 2.11

----------
Provide the reported zone of inhibition at 1000 µg/mL of each item.
System: Pseudomonas aeruginosa
METHOD_SUMMARY: Antibacterial activity against Pseudomonas aeruginosa assessed as diameter of inhibition zone at 1 mg/ml incubated for 24 hrs by agar well diffusion assay
Format: functional
EXPERIMENTAL_SETUP: read-out: DIZ
Answers are plain numbers, in mm.

Some solved entries appear below for comparison.
INSERT INTO results (smiles_input, test_target, readout, unit_label, numeric_readout) VALUES
  ('COc1cccc(-n2cc(COc3ccc([N+](=O)[O-])cc3/C=N/NC(=O)c3ccncc3)nn2)c1', 'Pseudomonas aeruginosa', 'zone of inhibition at 1000 µg/mL', 'mm', 10),
  ('CN(C)[C@@H]1C(O)=C(C(N)=O)C(=O)[C@@]2(O)C(O)=C3C(=O)c4c(O)cccc4[C@@](C)(O)[C@H]3C[C@@H]12', 'Pseudomonas aeruginosa', 'zone of inhibition at 1000 µg/mL', 'mm', 28),
  ('Cc1cccc(-n2cc(COc3ccc([N+](=O)[O-])cc3/C=N/NC(=O)c3ccncc3)nn2)c1', 'Pseudomonas aeruginosa', 'zone of inhibition at 1000 µg/mL', 'mm', 12);

I need zone of inhibition at 1000 µg/mL for every entry listed below, if you could help.
1. Cc1ccccc1-n1cc(COc2ccc([N+](=O)[O-])cc2/C=N/NC(=O)c2ccncc2)nn1
2. Cc1ccc([N+](=O)[O-])cc1-n1cc(COc2ccc([N+](=O)[O-])cc2/C=N/NC(=O)c2ccncc2)nn1
3. COc1ccc(-n2cc(COc3ccc([N+](=O)[O-])cc3/C=N/NC(=O)c3ccncc3)nn2)cc1
4. O=C(N/N=C/c1cc([N+](=O)[O-])ccc1OCc1cn(-c2ccc(Cl)cc2)nn1)c1ccncc1

Output line:
10
9
12
15

Input line: Which zone of inhibition at 1000 µg/mL is listed for `CCc1ccc(-n2cc(COc3ccc([N+](=O)[O-])cc3/C=N/NC(=O)c3ccncc3)nn2)cc1` ?
Output line: 10

----------
METHOD_SUMMARY: Cytotoxicity against mouse RAW264.7 cells assessed as reduction in cell viability at 25 ug/ml incubated for 48 hrs by MTT assay
Type: cell-based
EXPERIMENTAL_SETUP: at 25 µg/mL, read-out: INH
Rule: measured cytotoxicity at 48 h, 25 ug/ml below 20% gets condition met; anything equal to or greater than 20% gets condition not met.

INSERT INTO assay_data (smiles_input, class_assignment) VALUES
  ('O=C(N/N=C/c1cc([N+](=O)[O-])ccc1OCc1cn(-c2ccccc2)nn1)c1ccncc1', 'condition not met'),
  ('O=C(N/N=C/c1cc([N+](=O)[O-])ccc1OCc1cn(-c2ccccc2F)nn1)c1ccncc1', 'condition met'),
  ('COc1cccc(-n2cc(COc3ccc([N+](=O)[O-])cc3/C=N/NC(=O)c3ccncc3)nn2)c1', 'condition not met');

Input line: Report whether reported cytotoxicity at 48 h, 25 ug/ml is lower than 20% (strictly) for `Cc1cc(C)c(-n2cc(COc3ccc([N+](=O)[O-])cc3/C=N/NC(=O)c3ccncc3)nn2)c(C)c1`
Output line: condition not met

----------
Tested on: Saccharomyces cerevisiae
METHOD_SUMMARY: Antifungal activity against Saccharomyces cerevisiae assessed as diameter of inhibition zone at 1 mg/ml incubated for 24 hrs by agar well diffusion assay
Type: functional
EXPERIMENTAL_SETUP: read-out: DIZ
READOUT: zone of inhibition at 1000 µg/mL (mm)
One number for each entry, in mm.

Some solved entries appear below for comparison.
INSERT INTO results (smiles_input, numeric_readout) VALUES
  ('OC(Cn1cncn1)(Cn1cncn1)c1ccc(F)cc1F', 30),
  ('O=C(N/N=C/c1cc([N+](=O)[O-])ccc1OCc1cn(-c2ccccc2)nn1)c1ccncc1', 10),
  ('O=C(N/N=C/c1cc([N+](=O)[O-])ccc1OCc1cn(-c2ccccc2Cl)nn1)c1ccncc1', 12),
  ('O=C(N/N=C/c1cc([N+](=O)[O-])ccc1OCc1cn(-c2ccc(Cl)cc2)nn1)c1ccncc1', 10),
  ('O=C(N/N=C/c1cc([N+](=O)[O-])ccc1OCc1cn(-c2cccc(Cl)c2)nn1)c1ccncc1', 10);

I need zone of inhibition at 1000 µg/mL for every entry listed below, if you could help.
1. Cc1ccccc1-n1cc(COc2ccc([N+](=O)[O-])cc2/C=N/NC(=O)c2ccncc2)nn1
2. COc1ccccc1-n1cc(COc2ccc([N+](=O)[O-])cc2/C=N/NC(=O)c2ccncc2)nn1
3. O=C(N/N=C/c1cc([N+](=O)[O-])ccc1OCc1cn(-c2ccc(Br)cc2)nn1)c1ccncc1

Output line:
[12, 10, 12]

----------
Provide the reported zone of inhibition at 1000 µg/mL of each item.
Tested on: Escherichia coli
METHOD_SUMMARY: Antibacterial activity against Escherichia coli assessed as diameter of inhibition zone at 1 mg/ml incubated for 24 hrs by agar well diffusion assay
Format: functional
EXPERIMENTAL_SETUP: read-out: DIZ
Answers are plain numbers, in mm.

Some solved entries appear below for comparison.
INSERT INTO results (molecule, numeric_readout) VALUES
  ('CCc1ccc(-n2cc(COc3ccc([N+](=O)[O-])cc3/C=N/NC(=O)c3ccncc3)nn2)cc1', 10),
  ('O=C(N/N=C/c1cc([N+](=O)[O-])ccc1OCc1cn(-c2cccc(Cl)c2)nn1)c1ccncc1', 10),
  ('COc1ccc(-n2cc(COc3ccc([N+](=O)[O-])cc3/C=N/NC(=O)c3ccncc3)nn2)cc1', 12),
  ('COc1ccccc1-n1cc(COc2ccc([N+](=O)[O-])cc2/C=N/NC(=O)c2ccncc2)nn1', 11),
  ('CN(C)[C@@H]1C(O)=C(C(N)=O)C(=O)[C@@]2(O)C(O)=C3C(=O)c4c(O)cccc4[C@@](C)(O)[C@H]3C[C@@H]12 [TETRACYCLINE]', 29);

I need zone of inhibition at 1000 µg/mL for every entry listed below, if you could help.
1. O=C(N/N=C/c1cc([N+](=O)[O-])ccc1OCc1cn(-c2ccccc2)nn1)c1ccncc1
2. COc1cccc(-n2cc(COc3ccc([N+](=O)[O-])cc3/C=N/NC(=O)c3ccncc3)nn2)c1
3. Cc1ccc([N+](=O)[O-])cc1-n1cc(COc2ccc([N+](=O)[O-])cc2/C=N/NC(=O)c2ccncc2)nn1
4. O=C(N/N=C/c1cc([N+](=O)[O-])ccc1OCc1cn(-c2ccccc2Cl)nn1)c1ccncc1

Output line:
[12, 9, 12, 12]
